Assay system: human TRPA1 channel (Homo sapiens (Human), UniProt O75762)
Sequence (O75762 whole entry): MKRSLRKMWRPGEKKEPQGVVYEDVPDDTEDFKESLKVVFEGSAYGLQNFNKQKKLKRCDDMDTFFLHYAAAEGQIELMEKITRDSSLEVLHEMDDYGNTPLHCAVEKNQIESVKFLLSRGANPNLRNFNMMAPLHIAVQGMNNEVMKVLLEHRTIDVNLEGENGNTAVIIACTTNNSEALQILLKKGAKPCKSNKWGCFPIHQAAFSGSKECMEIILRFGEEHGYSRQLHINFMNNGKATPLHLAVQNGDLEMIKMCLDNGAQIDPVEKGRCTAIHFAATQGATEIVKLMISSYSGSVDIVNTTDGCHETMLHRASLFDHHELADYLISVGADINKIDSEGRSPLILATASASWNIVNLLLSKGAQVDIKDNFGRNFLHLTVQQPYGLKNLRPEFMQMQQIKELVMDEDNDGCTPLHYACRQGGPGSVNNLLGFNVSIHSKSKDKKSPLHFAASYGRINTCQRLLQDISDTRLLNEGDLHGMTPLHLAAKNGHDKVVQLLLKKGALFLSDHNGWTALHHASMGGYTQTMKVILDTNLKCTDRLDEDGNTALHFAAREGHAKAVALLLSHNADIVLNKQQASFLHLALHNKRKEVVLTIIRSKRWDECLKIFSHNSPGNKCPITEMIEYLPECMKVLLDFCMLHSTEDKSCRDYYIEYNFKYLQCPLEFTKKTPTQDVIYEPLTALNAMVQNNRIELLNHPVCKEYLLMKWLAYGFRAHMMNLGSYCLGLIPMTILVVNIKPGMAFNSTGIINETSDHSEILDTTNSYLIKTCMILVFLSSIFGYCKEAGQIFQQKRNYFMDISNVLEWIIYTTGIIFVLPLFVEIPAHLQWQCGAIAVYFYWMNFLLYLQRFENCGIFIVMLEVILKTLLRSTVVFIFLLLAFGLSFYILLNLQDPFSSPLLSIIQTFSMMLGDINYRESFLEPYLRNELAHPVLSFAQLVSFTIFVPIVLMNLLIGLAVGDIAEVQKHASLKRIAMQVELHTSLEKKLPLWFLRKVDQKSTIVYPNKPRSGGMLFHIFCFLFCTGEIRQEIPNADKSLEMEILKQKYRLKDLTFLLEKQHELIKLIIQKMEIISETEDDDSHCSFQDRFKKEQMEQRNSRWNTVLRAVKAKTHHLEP
Experiment: hTRPA1 CHO Ca2+ FLIPR Tetra assay: block of cinnamaldehyde induced calcium influx
Type: cell-based
Condition notes: read-out: hTRPA1 IC50 90 min; CHO cells expressing TRPA1; 90 minutes incubation with compound before cinnamaldehyde (about EC80); Hill coefficient fixed to 1.5
The reader will find reported log10(IC50) values listed item by item below.
Could you please treat all values as log10 of IC50 in nM?

A selection of reference data follows.
structure_smiles_string=Cc1cnc(N)n(Cc2nc([C@@H]3CO[C@@H](c4ccc(Cl)cc4)C3)no2)c1=O measured_number=1.83
structure_smiles_string=Nc1nc2ncn(Cc3nc([C@@H]4CO[C@@H](c5ccc(F)cc5)C4)no3)c(=O)c2s1 measured_number=1.56
structure_smiles_string=Cn1nnc2cnn(Cc3nc([C@@H]4CO[C@@H](c5ccc(Cl)cc5)C4)no3)c(=O)c21 measured_number=1.63
structure_smiles_string=Cn1cnc2nc(Cl)n(Cc3nc([C@@H]4CO[C@@H](c5ccc(Cl)cc5)C4)no3)c(=O)c21 measured_number=1.30
structure_smiles_string=O=c1ccc2c(=O)n(Cc3nc([C@@H]4CO[C@@H](c5ccc(Cl)cc5)C4)no3)cnc2[nH]1 measured_number=1.20

Ask: Provide only the value of recorded log10(IC50) for Nc1nc2ncn(Cc3nc([C@@H]4CO[C@@H](c5ccc(Cl)cc5)C4)no3)c(=O)c2s1
Result: 0.75

Ask: Provide only the value of recorded log10(IC50) for Cn1cnc2ncn(Cc3nc([C@@H]4CO[C@@H](c5ccccc5F)C4)no3)c(=O)c21
Result: 1.77

---

Assay system: UniProtKB O75762
Experiment: hTRPA1 CHO Ca2+ FLIPR Tetra assay: block of cinnamaldehyde induced calcium influx
Type: cell-based
Condition notes: read-out: hTRPA1 IC50 90 min; CHO cells expressing TRPA1; 90 minutes incubation with compound before cinnamaldehyde (about EC80); Hill coefficient fixed to 1.5
The reader will find reported pIC50 values listed item by item below.
// field semantics: pIC50 = negative decimal log of concentration (mol/L)

A selection of reference data follows.
structure_smiles_string=O=C1CCc2c(ncn(Cc3nc([C@@H]4CO[C@@H](c5ccc(Cl)cc5)C4)no3)c2=O)N1 measured_number=7.33
structure_smiles_string=Cc1nc2nc(C)n(C)c2c(=O)n1Cc1nc([C@@H]2CO[C@@H](c3ccc(Cl)cc3)C2)no1 measured_number=7.21
structure_smiles_string=Nc1nn2ncc(Cl)c2c(=O)n1Cc1nc([C@@H]2CO[C@@H](c3ccc(F)cc3)C2)no1 measured_number=8.18
structure_smiles_string=Cn1cnc2ncn(Cc3nc([C@@H]4CO[C@@H](c5cccc(Cl)c5)C4)no3)c(=O)c21 measured_number=7.85
structure_smiles_string=Cn1c(=O)ccc2ncn(Cc3nc([C@@H]4CO[C@@H](c5ccc(Cl)cc5)C4)no3)c(=O)c21 measured_number=7.85

Ask: Report pIC50 from UniProtKB O75762 testing of Cc1cnn2ncn(Cc3nc([C@@H]4CO[C@@H](c5ccc(C#N)cc5)C4)no3)c(=O)c12
Result: 7.41

Ask: Report pIC50 from UniProtKB O75762 testing of Cn1nncc1C(=O)NCc1nc([C@@H]2CO[C@@H](c3ccc(Cl)cc3)C2)no1
Result: 7.31
